From: patent US20240092848A1

Molecular target: T1, Reck-CK-Fc
T1 chain: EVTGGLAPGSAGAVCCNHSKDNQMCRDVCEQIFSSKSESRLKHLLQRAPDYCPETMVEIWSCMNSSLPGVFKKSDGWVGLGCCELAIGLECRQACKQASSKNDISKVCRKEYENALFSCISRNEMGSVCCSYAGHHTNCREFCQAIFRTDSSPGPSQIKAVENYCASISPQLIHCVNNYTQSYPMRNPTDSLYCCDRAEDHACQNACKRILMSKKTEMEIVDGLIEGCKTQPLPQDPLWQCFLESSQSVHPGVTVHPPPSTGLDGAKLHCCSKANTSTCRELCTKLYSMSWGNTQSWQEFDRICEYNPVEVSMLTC
Test: single-molecule force spectroscopy (AFM tip with PEG-linked pWnt7b, surface coated with Reck-CK-Fc on protein G)
Side chains are listed from the residue outwards. Ends that are not written are not given here. AFM tip = not defined here
recorded-metric: Kd (µM)
Numbers only, in µM.

Which Kd value is on record for VEVVRASRLRQPTFLRIKQLRSYQKPMETC([NHS‑PEG27‑maleimide linker-AFM tip]) (reading uncertain, Used in single-molecule force spectroscopy; also called Pep7b) [pWnt7b peptide on the AFM tip] ?
5
